Just for reference, paper PMC3747596 is where these values come from.

molecular target: DAT (Homo sapiens, UniProt Q01959); assay: Radioligand displacement, DAT; details: Ki, [3H] radioligand WIN35428; Human, Cloned
Sequence (Q01959 whole entry): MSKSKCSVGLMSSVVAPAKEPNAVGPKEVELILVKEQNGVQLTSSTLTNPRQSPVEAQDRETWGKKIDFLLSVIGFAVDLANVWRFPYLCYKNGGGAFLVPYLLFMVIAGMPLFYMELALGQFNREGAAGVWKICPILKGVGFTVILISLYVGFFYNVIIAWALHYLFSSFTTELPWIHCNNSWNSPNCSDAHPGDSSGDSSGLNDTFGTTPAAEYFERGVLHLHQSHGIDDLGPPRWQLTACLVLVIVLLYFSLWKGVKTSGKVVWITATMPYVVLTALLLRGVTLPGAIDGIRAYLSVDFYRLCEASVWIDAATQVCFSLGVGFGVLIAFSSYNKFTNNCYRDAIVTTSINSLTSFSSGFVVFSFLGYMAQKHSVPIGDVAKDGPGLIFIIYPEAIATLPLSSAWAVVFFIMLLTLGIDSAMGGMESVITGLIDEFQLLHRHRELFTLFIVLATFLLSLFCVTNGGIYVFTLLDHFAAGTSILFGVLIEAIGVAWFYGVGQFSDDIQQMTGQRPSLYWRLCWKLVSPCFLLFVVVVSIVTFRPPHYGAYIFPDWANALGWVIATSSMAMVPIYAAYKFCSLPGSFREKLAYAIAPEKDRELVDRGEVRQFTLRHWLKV
outcome.measure: pKi
Answers are plain numbers, as −log10 of the molar value.

Q. Name the reported pKi value associated with the molecule `CC(C)[C@@H](CN1CC[C@@](C)(c2cccc(O)c2)[C@@H](C)C1)NC(=O)[C@H]1Cc2ccc(O)cc2CN1`
A. 5.36

* * *

molecular target: 5-HT2a (Homo sapiens); assay: Radioligand displacement, 5-HT2a; assay type: binding; settings: [3H] radioligand Ketanserin; Human, Cloned; read-out: Ki
Sequence (P28223 whole entry): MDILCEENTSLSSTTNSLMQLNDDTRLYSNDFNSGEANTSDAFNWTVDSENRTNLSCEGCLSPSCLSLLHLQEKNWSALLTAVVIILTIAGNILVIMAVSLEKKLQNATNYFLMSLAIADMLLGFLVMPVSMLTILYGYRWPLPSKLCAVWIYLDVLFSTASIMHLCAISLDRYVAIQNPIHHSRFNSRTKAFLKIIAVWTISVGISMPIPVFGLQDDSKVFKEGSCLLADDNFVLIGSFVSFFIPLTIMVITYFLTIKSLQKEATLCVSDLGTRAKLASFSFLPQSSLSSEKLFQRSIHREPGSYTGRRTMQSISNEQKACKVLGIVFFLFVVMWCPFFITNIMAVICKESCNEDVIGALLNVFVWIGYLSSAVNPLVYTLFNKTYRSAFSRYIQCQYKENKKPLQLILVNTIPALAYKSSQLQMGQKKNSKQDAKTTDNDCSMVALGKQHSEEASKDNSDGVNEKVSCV
outcome.measure: Ki

Q. Notebook: pull reported Ki for 5-HT2a (Homo sapiens), entry `CC(C)[C@@H](CN1CC[C@@](C)(c2cccc(O)c2)[C@@H](C)C1)NC(=O)[C@H]1Cc2ccc(O)cc2CN1`
A. ≥ 10 µM
